# ASSAY_INFO: Pharmacokinetics in whole blood of healthy mice
# Format: in vivo, MF1 mice
# ASSAY_CONDITIONS: IP 2 mg/kg, measured as Pd
PARAMETER_MEASURED: Cmax (nM)
A number alone suffices; assume nM.

What measured Cmax goes with CC(C)c1cccc(C(C)C)c1[N+]1=Cc2cccc[c]2[Pd-2]1([Cl])[P+](CC[P+](c1ccccc1)(c1ccccc1)[Pd-2]1([Cl])[c]2ccccc2C=[N+]1c1c(C(C)C)cccc1C(C)C)(c1ccccc1)c1ccccc1 (stereo not shown) ?
30
